- Tested on: common stomach cancer cells (MKN-74 and AGS)
- Experiment Notes: Proliferation inhibition, average over common stomach cancer cells
- Format: cell-based
- Condition Context: Homo sapiens; average of MKN-74 and AGS; read-out: IC50 concentration, average
- Experimental: First, in order to examine the growth inhibitory effect of gossypol against stomach cancer stem cells, two types of common stomach cancer cells (AGS and MKN-74) and two types of stomach cancer stem cells (MKN-1 and SNU-484) were prepared. […] Based on the measured absorbance, the IC50 concentration of gossypol, at which the survival rate of each type of cells, is measured, and the results are shown in FIGS. 6 and 7.
Observed Property: pIC50
pIC50 (log units): -log10 of the concentration in mol/L.

Memo: Cc1cc2c(C(C)C)c(O)c(O)c(C=O)c2c(O)c1-c1c(C)cc2c(C(C)C)c(O)c(O)c(C=O)c2c1O , reported pIC50: 5.30
